All values here come from ChEMBL document CHEMBL1152951.

Entries and their pIC50
- Test system: L5178Y
- test name: Antiproliferative activity against mouse L5178Y cells after 72 hrs by MTT assay
- Assay type: functional
- experimental setup: read-out: ID50 (the source's name)
FYI, pIC50 means -log10 of a concentration in mol per litre.

| compound | pIC50 |
| --- | --- |
| Cc1cc2c([n-]c3ccccc32)c2[n+]1C(C)NCC2 (stereo not drawn) [TABERNINE A] | 4.34 |
| Cc1cc2c([nH]c3ccccc32)c(CCN)n1 [TEBERNINE C] | 4.15 |

Turning to the following compound.
**Query** Bench note: what pIC50 did Cc1cc2c3ccccc3n3c2c(n1)CCNC3C (stereo not drawn) [TEBERNINE B] show?
**Result** 4.33
